Values from the array DNA melting data of Ke et al. (doi:10.1101/2024.01.08.574731)

Recorded measurements of folding enthalpy, one per entry
Assay: folding enthalpy; higher = less favourable; fluorescence melt of hairpins on a sequencing array, two-state fit
Conditions: sodium 0.088 M
property: folding enthalpy (kcal/mol)

> print(dat)
                         monomer.sequence          property  value.reported
 1  GACTCACGAAAGTGCGTC (((.(((....))).)))  folding enthalpy           -32.8
 2  GCGTTGACGAAAGTCCGC (((..(((....))))))  folding enthalpy           -24.1
 3  GCCCTCGAAAGAGAGGGC ((((((....)))..)))  folding enthalpy             -33
 4      GATCAAGTGATTGATC ((((((....))))))  folding enthalpy           -32.2
 5  GGGAACGGAAACGTTCTC (.(((((....))))).)  folding enthalpy           -18.2
 6  GGCGACGGAAACGCCACC ((.(.((....)).).))  folding enthalpy           -16.9
 7  CGGCCGGAAACGGCGCCG ((((((....)))..)))  folding enthalpy           -8.21
 8  CGTACCGGAAACGGAACG (((.(((....))).)))  folding enthalpy           -30.7
 9  GGGAGCGAAAGCTAGCCC ((((((....)))..)))  folding enthalpy           -14.2
10  GCGTGAGGAAACTCGCGC (((.(((....))).)))  folding enthalpy             -43
11  GGTAGTGGAAACGTTACC ((((..(....)..))))  folding enthalpy           -17.1
12      GCTAGGGAAACCTAGC ((((((....))))))  folding enthalpy           -36.9
13              GCGTGCGAACGC ((((....))))  folding enthalpy           -18.2
14  GAACTGGGAAACCGGTTC ((((.((....)).))))  folding enthalpy           -39.6
15  GGCAGTCGAAAGACGGCC (((.(((....))).)))  folding enthalpy           -36.4
16  GGGTTCGGAAACGAGTCC ((..(((....)))..))  folding enthalpy           -25.4
17              GCGAAGGATCGC ((((....))))  folding enthalpy           -9.71
18  GCACACGGAAACGTGTAC (.(((((....))))).)  folding enthalpy           -13.8
19  GTAACAGGAAACTGCTAC (((.(((....))).)))  folding enthalpy           -29.1
20  GCGCGGCGAAAGCCCTGC ((..(((....)))..))  folding enthalpy           -13.5
21      GATCGTGGGTACGATC ((((((....))))))  folding enthalpy           -37.6
22    GATTACGAAAGTAAATC ((((((....))).)))  folding enthalpy           -19.9
23        GATCAATTATTGATC ((((((...))))))  folding enthalpy           -29.3
24    GTTACCCGAAAGGGAAC (((.(((....))))))  folding enthalpy           -17.1
25  GAGTACGAAAGTACACTC ((((((....)))..)))  folding enthalpy           -16.2
26  GGTCAGCGAAAGCTCACC (((.(((....))).)))  folding enthalpy           -18.9
27  GCCAGCGAAAGCTCGGGC ((((((....)))..)))  folding enthalpy           -20.4
28    GTGTCCGAAAGGATCAC ((((((....))).)))  folding enthalpy           -25.2
29  GTGCCCGGAAACGGGTGC (..((((....))))..)  folding enthalpy           -21.9
30  GAACACGAAAGTGGGTTC ((((((....)))..)))  folding enthalpy           -16.4
31  GGACGAGCGAAAGCTTCC (((..(((....))))))  folding enthalpy           -9.29
32  GCAGCCGAAAGGCTTTGC ((((((....)))..)))  folding enthalpy           -10.2
33  GACATCGGAAACAATGTC (((((.(....).)))))  folding enthalpy             -33
34  GGGGTTGGAAACAGTCCC (((..((....))..)))  folding enthalpy           -24.5
35  GCGGTTGGAAACGACCGC (((((.(....).)))))  folding enthalpy           -48.8
36    GAAACGCGAAAGCGTTC (((.(((....))))))  folding enthalpy           -8.94
37  GCGTCCGAAAGGAGGCGC ((((((....)))..)))  folding enthalpy           -36.3
38  GCCTGGCGAAAGCATGGC (((..((....))..)))  folding enthalpy           -23.7
39  GATGTAGGAAACCACATC (((((.(....).)))))  folding enthalpy           -34.1
40  GATGACACGAAAGTGATC (((..(((....))))))  folding enthalpy           -11.4
41  GCTCGGCGAAAGCCCCGC ((..(((....)))..))  folding enthalpy           -4.44
42  GCGACGCGAAAGCCTCGC ((((.((....)).))))  folding enthalpy           -33.3
43    GTAGACCGAAAGGTTAC (((.(((....))))))  folding enthalpy           -16.7
44      GATCTATTGGTAGATC ((((((....))))))  folding enthalpy           -30.4
45  GTGGGCGGAAACGCCTAC ((.((((....)))).))  folding enthalpy           -16.3
46  GCTATCGAAAGATTGAGC ((((((....)))..)))  folding enthalpy           -20.5

----------
Experiment: melting temperature; fluorescence melt of hairpins on a sequencing array, two-state fit, raised by 9.35 °C to match UV melts
Conditions: sodium 0.088 M
Each entry below carries its reported Tm.
property: Tm

> print(dat)
                         monomer.sequence  property  value.reported
 1  GCCCTCGAAAGAGATGGC ((((((....)))..)))        Tm         46.4 °C
 2  GACAATACGAAAGTAGTC (((..(((....))))))        Tm         30.3 °C
 3  GACCGACGAAAGTCCGTC (((.(((....))).)))        Tm         43.1 °C
 4      GATCAATACCTTGATC ((((((....))))))        Tm         46.5 °C
 5  GTACGGGGAAACCCGCAC ((.((((....)))).))        Tm         54.3 °C
 6  GCGCCGCGAAAGCTTCGC (((..((....))..)))        Tm         54.7 °C
 7  GGTGCGGGAAACCGCGTC (..((((....))))..)        Tm         44.1 °C
 8  GAATCACGAAAGTGTTTC (((.(((....))).)))        Tm         41.5 °C
 9  GAAAGCGAAAGCTAATTC ((((((....)))..)))        Tm         28.8 °C
10      GATCAAACCATTGATC ((((((....))))))        Tm         42.1 °C
11  GCATGGCGAAAGCCGAGC ((..(((....)))..))        Tm         55.7 °C
12  GCCAGCGAAAGCTTTGGC ((((((....)))..)))        Tm         51.4 °C
13    GATACCGAAAGGTCATC ((((((....))).)))        Tm         35.6 °C
14  GAGGCAGGAAACTGCTTC ((.((((....)))).))        Tm         47.7 °C
15  GCATCGCGAAAGCAACGC ((.(.((....)).).))        Tm         40.6 °C
16  GATATGGGAAACCATGTC ((.((((....)))).))        Tm         41.8 °C
17  GTTAACCCGAAAGGGAAC (((..(((....))))))        Tm         25.9 °C
18  GCTCCGGGAAACCGGGGC ((.((((....)))).))        Tm         63.8 °C
19  GTCTCCGAAAGGATTGAC ((((((....)))..)))        Tm         35.5 °C
20  GCGGACGGAAACGCCCAC (.((.((....)).)).)        Tm         36.6 °C
21  GACAGGGGAAACCCTATC ((.((((....)))).))        Tm           28 °C
22  GTGTGTTCGAAAGAACAC (((..(((....))))))        Tm         64.2 °C
23  GTGTATCGAAAGATTCAC (((.(((....))).)))        Tm         44.7 °C
24    GGTCTCGAAAGAGTACC ((((((....))).)))        Tm         46.8 °C
25  GCAGGCGAAAGCCCTTGC ((((((....)))..)))        Tm         38.9 °C
26  GGGCACGAAAGTGTCCCC ((((((....)))..)))        Tm         65.1 °C
27  GCTAAATCGAAAGATAGC (((..(((....))))))        Tm         33.9 °C
28      GATCTATTCCTAGATC ((((((....))))))        Tm         40.4 °C
29    GAACCCGAAAGGGCTTC ((((((....))).)))        Tm         46.3 °C
30  GTCACAGCGAAAGCTGAC (((..(((....))))))        Tm         34.2 °C
31        GATCGATCATCGATC ((((((...))))))        Tm         50.5 °C
32      GATCCGTAACCGGATC ((((((....))))))        Tm         55.7 °C
33      GCTCATGAAAATGAGC ((((((....))))))        Tm         63.6 °C
34  GCTCTCGAAAGAGCTAGC ((((((....)))..)))        Tm         50.3 °C
35              GCGAGGTCTCGC ((((....))))        Tm         54.9 °C
36      GATCGTAGGGACGATC ((((((....))))))        Tm           56 °C
37  GTAGACGAAAGTCGATAC ((((((....)))..)))        Tm         34.7 °C
38  GATTTCACGAAAGTGATC (((..(((....))))))        Tm         23.4 °C
39    GCCTCACGAAAGTGGGC (((.(((....))))))        Tm         58.6 °C
40  GGACCTGGAAACAGATCC (((.(((....))).)))        Tm         40.2 °C
41    GCACCACGAAAGTGTGC (((.(((....))))))        Tm         58.6 °C
42  GCCTGTGGAAACATGGGC (((..((....))..)))        Tm         47.4 °C
